Biological target: TDP-43 (Homo sapiens, UniProt Q13148 1-414)
Sequence (Q13148 whole entry): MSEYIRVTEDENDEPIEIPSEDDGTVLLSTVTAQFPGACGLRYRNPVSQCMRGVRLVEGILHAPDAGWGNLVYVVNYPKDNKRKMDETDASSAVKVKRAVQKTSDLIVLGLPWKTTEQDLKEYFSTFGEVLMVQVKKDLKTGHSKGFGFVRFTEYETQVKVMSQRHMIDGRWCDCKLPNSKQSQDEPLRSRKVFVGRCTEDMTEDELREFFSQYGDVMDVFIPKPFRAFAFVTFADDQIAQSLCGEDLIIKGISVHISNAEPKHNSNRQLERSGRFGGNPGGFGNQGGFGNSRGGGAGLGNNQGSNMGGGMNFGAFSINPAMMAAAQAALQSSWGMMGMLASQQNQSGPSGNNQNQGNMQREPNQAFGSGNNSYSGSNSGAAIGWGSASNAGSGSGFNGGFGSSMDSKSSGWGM
Test: RNA Bind-n-Seq with designed 260-mer pool; 25 mM Tris-HCl, 150 mM KCl, 3 mM MgCl2, BSA (printed 500 mg/mL), 20 units/mL SUPERase IN; pH not stated; 500 nM RNA pool, 1 h, 4 C; TDP-43 5, 50, 500 nM; high values mean tight binding
Settings: protein: recombinant; tags: SBP (GST cleaved off with PreScission; pGEX-GST-SBP)
Over roughly 9,900 sequences, “r (bound/input frequency ratio)” has its median near 0.7; the highest 2% begin near 6.5. What follows is part of a selection rich in the highest values, with near analogues and random picks from the rest.
Readout name: binding signal

Would you please look over these solved cases?
Binder	Val
ENSMUSG00000028439.166|Fam219a (ssRNA) RNA: GGGAGUUCUACAGUCCGACGAUCGCUUCGAUAUCCGCAUGCUAAGGAAAUACAGUGAGCCAAGUGGCUGUAUGAUAUGGUAUGGUAUGGUAUGGUAUGGUAUGGUAUGGUAUGCACAUGUGUGUGCAUGUGUGUGUGCCUGUGUGUGUGCGUGUGCGUGUGUGUAUGUGUGUGCGUGUGUGUGUGUGUGUGUUGUACCCGAGUGUGUGUUGAGCCUAUCUGUCCAGGGAACCAGAUUGGUGUCCGAGAUGAGGAAAUGGCUGUGGCCUGGGAAAUCAGUGAGAGGCCGCUUGGGAAUGAGAAUCUCUUGCGGUCGCACUAGUGUGGAAUUCUCGGGUGUCAAGG	6.86 R (bound/input frequency ratio)
ENSMUSG00000058297.521|Spock2 (ssRNA) RNA: GGGAGUUCUACAGUCCGACGAUCGCUUCGAUAUCCGCAUGCUAGACCACGUGUGAUGGGUGGGCACAGGUCUGCCUUGCUCCAGCCCCCUCCCUUGGUUUCUGUUGGUACCCAUUUGGCUUUUAUCUGCUUUCUGCUUCACCACUAAGUGCGUAGGUGGGGUCUUUUGAUAUCGGCUCCCCAAAGCCCAAGCCCACAGCCCUAGGAGAGAACCAGGGGCCCAUCUUUGACACCUGGGCCAUCACGAGCCCUCCCGCCUGCAGUUGUCCUAGGGAAAGACCUGGGGGUGCAAAAGGAGAUUCAACUCUUGCGGUCGCACUAGUGUGGAAUUCUCGGGUGUCAAGG	0.432 R (bound/input frequency ratio)
ENSMUSG00000028439.164|Fam219a (ssRNA) RNA: GGGAGUUCUACAGUCCGACGAUCGCUUCGAUAUCCGCAUGCUAAGAGCAAGCUUAAGGAAAUACAGUGAGCCAAGUGGCUGUAUGAUAUGGUAUGGUAUGGUAUGGUAUGGUAUGGUAUGGUAUGCACAUGUGUGUGCAUGUGUGUGUGCCUGUGUGUGUGCGUGUGCGUGUGUGUAUGUGUGUGCGUGUGUGUGUGUGUGUGUUGUACCCGAGUGUGUGUUGAGCCUAUCUGUCCAGGGAACCAGAUUGGUGUCCGAGAUGAGGAAAUGGCUGUGGCCUGGGAAAUCAGUGAGAGGCCGCUUCUCUUGCGGUCGCACUAGUGUGGAAUUCUCGGGUGUCAAGG	8.42 R (bound/input frequency ratio)
ENSMUSG00000028439.165|Fam219a (ssRNA) RNA: GGGAGUUCUACAGUCCGACGAUCGCUUCGAUAUCCGCAUGCUAAGCUUAAGGAAAUACAGUGAGCCAAGUGGCUGUAUGAUAUGGUAUGGUAUGGUAUGGUAUGGUAUGGUAUGGUAUGCACAUGUGUGUGCAUGUGUGUGUGCCUGUGUGUGUGCGUGUGCGUGUGUGUAUGUGUGUGCGUGUGUGUGUGUGUGUGUUGUACCCGAGUGUGUGUUGAGCCUAUCUGUCCAGGGAACCAGAUUGGUGUCCGAGAUGAGGAAAUGGCUGUGGCCUGGGAAAUCAGUGAGAGGCCGCUUGGGAAUCUCUUGCGGUCGCACUAGUGUGGAAUUCUCGGGUGUCAAGG	6.33 R (bound/input frequency ratio)
ENSMUSG00000034801.219|Sos2|230:238 (ssRNA) RNA: GGGAGUUCUACAGUCCGACGAUCGCUUCGAUAUCCGCAUGCUAUCUGCUAUUUGACUAAUUUGUAAGUCUGGAACAAAAGUGUCUUAUGGCAUAAGAACCAACUGCCAUUGUCAAACCUAUUAACUGUCUUUAAUCUCGUGUUAACUGAAAUUUUUGAAAAGUUUUUCCAGAUUAGUAAUAUUUAAACAGAAAAUACUUUAAAAAGCUUUAUUAAAUUUUUUAAUCAGGAUAAAGCUUUGCCAUUUGGAUACUAUCAUUCAAAGUGAUCAAGCAUACAUACUUAUGCUGAUAGUGCAGUAGCACUCUUGCGGUCGCACUAGUGUGGAAUUCUCGGGUGUCAAGG	0.0202 R (bound/input frequency ratio)

Take each entry in turn and give its binding signal.
1. ENSMUSG00000028439.169|Fam219a (ssRNA) RNA: GGGAGUUCUACAGUCCGACGAUCGCUUCGAUAUCCGCAUGCUAAGUGGCUGUAUGAUAUGGUAUGGUAUGGUAUGGUAUGGUAUGGUAUGGUAUGCACAUGUGUGUGCAUGUGUGUGUGCCUGUGUGUGUGCGUGUGCGUGUGUGUAUGUGUGUGCGUGUGUGUGUGUGUGUGUUGUACCCGAGUGUGUGUUGAGCCUAUCUGUCCAGGGAACCAGAUUGGUGUCCGAGAUGAGGAAAUGGCUGUGGCCUGGGAAAUCAGUGAGAGGCCGCUUGGGAAUGAGAAUGCAGUGGACUGAAAGCACCUCUUGCGGUCGCACUAGUGUGGAAUUCUCGGGUGUCAAGG
2. ENSMUSG00000061578.1408|Ksr2|69:73 (ssRNA) RNA: GGGAGUUCUACAGUCCGACGAUCGCUUCGAUAUCCGCAUGCUACUCCACGGACCUCAGGCCCACUGUUUUCUCCAUGUCUGUCUGUACUGACUGUUGCAGAAUGAGCUGAUCAUACAUCUUGAUUCUCCAUUUUCCUUCUGGACCACAUGUCUCUUCCUUUUCCUUUUUAGAUCUGUCUUGCUCUCUGUCUCUCUCACUCAUUGCCAACAUGUUGCUGGGAAAGAAUAUUUGAUUUAGAUGCCAAUCAGGAAGGCAAGUAGGAUGGAUGGAUGAGUGAGUGGAUAGGUAGGUAUAUAAAUGGACUCUUGCGGUCGCACUAGUGUGGAAUUCUCGGGUGUCAAGG

6.41 R (bound/input frequency ratio)
0.845 R (bound/input frequency ratio)

Source of measurements: paper PMC12864922
